# Tested on: P388 leukemia ip, CD2F1 mice, survival T/C
# METHOD: NCI In Vivo Anticancer Drug Screen. Data for tumor model P388 Leukemia (intraperitoneal) in CD2F1 (CDF1) mice
# PROTOCOL_CONDITIONS: endpoint: median survival time; dose: 100.0 mg/kg/injection; schedule: Q01DX009 (ip); vehicle: saline
Inconclusive results and toxic doses are left out. The calls were made as follows: active = survival T/C of 150% or more; inactive = T/C below 125% in these data.
In this exercise, the only acceptable responses are active, inactive

MOLECULE: Cc1ccc(N)c2ccccc12
TEST_TARGET: P388 leukemia ip, CD2F1 mice, survival T/C
CLASS_NAME: inactive

Entry N#CCCS(=O)(=O)c1ccc(Cl)cc1 : call = ?
inactive

How was Nc1oc([N+](=O)[O-])cc1[N+](=O)[O-] classified in this test?
inactive

Write down the call the test reported for this molecule. Item: CC(=O)SCN1CCCCC1
inactive

Call for entry CC1(C)CC(NC(=O)CCl)CC(C)(C)N1O :
inactive

Outcome logged for CC(C)c1cccc(O)c1O in this assay:
inactive

# lookup: test call for Ic1ncnc2c1ncn2C1CCCCO1 (centres undefined)
inactive

Give the logged outcome of this assay for the following molecule: ClCC#CCOc1c(Cl)cccc1Cl
inactive

Please indicate how the test categorized Oc1ccc(C(O)C2CCCCN2)cc1O (centres undefined) .
inactive

How did this test come out for N#C/C(=C\c1cccs1)C(N)=S ?
inactive

Would you mind telling me which call this test gave CCON(C=Nc1ccc(Cl)c(Cl)c1)c1ccc(Cl)c(Cl)c1 ?
inactive

What is the recorded call for this molecule in the test? OC(Cc1cncc(CC(O)(C(F)(F)F)C(F)(F)F)n1)(C(F)(F)F)C(F)(F)F
inactive

For CC1=NN(c2cc(S(=O)(=O)O)ccc2Cl)C(=O)C1N=Nc1ccccc1 (centres undefined) , what call appears in the results of this test?
inactive

Record request — test call for FC(F)(F)c1ccc2nc3c(nc2c1)-c1ccc(Br)c2cccc-3c12
inactive

Given CCCCCCCCCCOC(=O)CC(C)=O.CCCCCCCCCCOC(=O)CC(C)=O.[Ni+2] , state the outcome it received in this test.
inactive

Just curious, what result did O=C(CCl)NCCCl get here?
inactive

----------
Let's look at some molecules and their measured T/C.
# System: P388 leukemia ip, CD2F1 mice, survival T/C
# METHOD: NCI In Vivo Anticancer Drug Screen. Data for tumor model P388 Leukemia (intraperitoneal) in CD2F1 (CDF1) mice
# PROTOCOL_CONDITIONS: endpoint: median survival time; dose: 50.0 mg/kg/injection; schedule: Q01DX009 (ip); vehicle: saline with Tween-80; higher = longer survival
Inconclusive results and toxic doses are left out.

# example entries with known answers
MOLECULE: CCCCn1c(O)c(/C=C2/C=Nc3ccccc32)sc1=O
ENDPOINT_VALUE: 95 % of control
--
MOLECULE: CN(C)c1ccc2c(c1)Cc1cc(N=C3C=CC(=O)O3)ccc1-2
ENDPOINT_VALUE: 100 % of control
--
MOLECULE: c1ccc(N=P(c2ccccc2)(c2ccccc2)c2ccccc2)cc1
ENDPOINT_VALUE: 108 % of control

Request - read-out T/C | tested on P388 leukemia ip, CD2F1 mice, survival T/C | molecule Brc1c(Br)c(Br)c2n[nH]nc2c1Br
106 % of control

Record O=C(c1ccccc1)N1OC2C=CC1CC2 (stereo not given) : what is its T/C with P388 leukemia ip, CD2F1 mice, survival T/C?
104 % of control

----------
# Tested on: P388 leukemia ip, CD2F1 mice, survival T/C
# METHOD: NCI In Vivo Anticancer Drug Screen. Data for tumor model P388 Leukemia (intraperitoneal) in CD2F1 (CDF1) mice
# PROTOCOL_CONDITIONS: endpoint: median survival time; dose: 12.5 mg/kg/injection; schedule: Q04DX003 (ip); vehicle: Klucel (hydroxypropylcellulose) (HPC); higher = longer survival
# Description: The antitumor activity of compounds was measured in mice bearing transplantable tumors. Survival or tumor size were measured and the results are expressed as the measurement made in the treated group (T) divided by the measurement made in the vehicle treated control group (C). The tumor model used in this assay is P388 Leukemia (intraperitoneal) in CD2F1 (CDF1) mice
Inconclusive results and toxic doses are left out.
PROPERTY: T/C

Here is how some molecules turned out for T/C.
MOLECULE: COC1C(O[C@@H]2c3c(cc4c(c3O)C(=O)c3c(O)cccc3C4=O)C(=O)C(C)(O)C2OC)OC(C)C(O)C1O (some centres undefined)
T/C: 101 % of control
--
MOLECULE: [NH-]NC(=S)[S-].[NH-]NC(=S)[S-].[Pt+4]
T/C: 103 % of control
--
MOLECULE: CS(=O)(=O)OCc1ccc(COS(C)(=O)=O)cc1
T/C: 123 % of control

API: the following record is the query input.
Fill in the blank: the reported T/C of COC(C)(C)[CH]([Hg][Cl])n1ccccc1=O (centres undefined) is ____.
93 % of control

----------
T/C: recorded values
# Tested on: P388 leukemia ip, CD2F1 mice, survival T/C
# METHOD: NCI In Vivo Anticancer Drug Screen. Data for tumor model P388 Leukemia (intraperitoneal) in CD2F1 (CDF1) mice
# PROTOCOL_CONDITIONS: endpoint: median survival time; dose: 200.0 mg/kg/injection; schedule: Q04DX002 (ip); vehicle: saline; higher = longer survival
Toxic doses and inconclusive results are not listed.

COMPOUND: CC1CC2(OC2C)C(=O)OC2CCN(C)C/C=C(/COC(=O)C1(C)O)C2=O (stereo not drawn)
T/C: 106 % of control

Fill in: T/C of O=C1C(=Cc2cc(Cl)c(O)c(Cl)c2)C(=O)c2ccccc21 is ___
86 % of control

For the compound shown here, Cc1ccc(C2(C)C(=O)c3ccccc3C2=O)cc1 , give the reported T/C.
100 % of control

Sample CCCCCCCCCCCCCCCCCC(=O)OCCN(C=O)C[n+]1ccccc1 — what was its T/C?
120 % of control

Can you share its T/C? I mean this compound: c1ccc2sc(SNC3CCCCC3)nc2c1
109 % of control

So what does the record say about T/C for CC(=O)C1CC2CN(C(=O)OCC(Cl)(Cl)Cl)C1C=C2c1ccccc1 (stereo not drawn) ?
94 % of control

Recorded T/C for [N-]=[N+]=Nc1nnc(-c2ccccc2)c(=O)[nH]1 , please?
101 % of control

For Cc1nsnc1CCO , what is its reported T/C?
104 % of control

----------
# Tested on: P388 leukemia ip, CD2F1 mice, survival T/C
# METHOD: NCI In Vivo Anticancer Drug Screen. Data for tumor model P388 Leukemia (intraperitoneal) in CD2F1 (CDF1) mice
# PROTOCOL_CONDITIONS: endpoint: median survival time; dose: 100.0 mg/kg/injection; schedule: Q04DX002 (ip); vehicle: saline with Tween-80; higher = longer survival
Inconclusive results and toxic doses are left out.
PROPERTY: T/C

// below: answered compounds
COMPOUND: CC(C)=CCc1ccc2c(c1)CCCN2C
TEST_TARGET: P388 leukemia ip, CD2F1 mice, survival T/C
T/C: 108 % of control
//
COMPOUND: C/C(=N\Nc1nncn2cccc12)c1ccccc1
TEST_TARGET: P388 leukemia ip, CD2F1 mice, survival T/C
T/C: 113 % of control
//
COMPOUND: CC(C)=CCC(OC(=O)C=C(C)C)c1cc(O)c2c(O)ccc(O)c2c1O.[Fe] (centres undefined)
TEST_TARGET: P388 leukemia ip, CD2F1 mice, survival T/C
T/C: 92 % of control
//
COMPOUND: COC(=O)c1c(-c2ccc3c(c2)OCO3)c(C=O)n(C)c1C
TEST_TARGET: P388 leukemia ip, CD2F1 mice, survival T/C
T/C: 90 % of control
//
COMPOUND: COc1ccc(N=Nc2c(C)[nH]n(C)c2=O)cc1
TEST_TARGET: P388 leukemia ip, CD2F1 mice, survival T/C
T/C: 96 % of control
//
COMPOUND: CC12CC3CN(C(=O)c4ccccc4)CCC3CC1=Nc1ccccc12 (centres undefined)
TEST_TARGET: P388 leukemia ip, CD2F1 mice, survival T/C
T/C: 94 % of control
//
COMPOUND: OCC(O)C(O)C(O)c1nnc2c3ccccc3c(-c3ccccc3)nn12 (centres undefined)
TEST_TARGET: P388 leukemia ip, CD2F1 mice, survival T/C
T/C: 91 % of control
//
COMPOUND: N#CC(c1ccccc1)C(c1ccccc1)c1cccc2ccccc12 (centres undefined)
TEST_TARGET: P388 leukemia ip, CD2F1 mice, survival T/C
T/C: 104 % of control

What T/C value was documented for this compound, O=C1Oc2nc3ccccc3cc2/C1=C/c1ccccc1 ?
89 % of control

# query: T/C of entry O=C1N(c2ccccc2)C(=O)C2(N(c3ccccc3)CCN2c2ccccc2)N1c1ccccc1
88 % of control

What does the data say about its T/C? Entry: CSc1nc2c(=S)[nH]cnc2s1
95 % of control

Entry under review: Nc1[nH]c(=S)[nH]c(=S)c1N . Reported T/C?
102 % of control

Endpoint output: T/C of COc1ccc2c([O-])c3[n+](c(OC)c2c1OC)CCc1cc2c(cc1-3)OCO2 . Value?
104 % of control

Given the entry CC(=O)C1=CC(C)(C)OC1=O , report its measured T/C.
103 % of control
